TARGET OF ASSAY: T1, hu_CXCR2_N-term (1-17)-BSA (human; bovine, coupled to carrier protein BSA; C-terminal cysteine introduced to enable coupling)
T1 construct: Synthetic linear peptide chemically coupled to the carrier; also called CXCR2_aa1-17_BSA; CXCR2 aa1-17 BSA
T1 sequence (P02769 25-607 limits assumed): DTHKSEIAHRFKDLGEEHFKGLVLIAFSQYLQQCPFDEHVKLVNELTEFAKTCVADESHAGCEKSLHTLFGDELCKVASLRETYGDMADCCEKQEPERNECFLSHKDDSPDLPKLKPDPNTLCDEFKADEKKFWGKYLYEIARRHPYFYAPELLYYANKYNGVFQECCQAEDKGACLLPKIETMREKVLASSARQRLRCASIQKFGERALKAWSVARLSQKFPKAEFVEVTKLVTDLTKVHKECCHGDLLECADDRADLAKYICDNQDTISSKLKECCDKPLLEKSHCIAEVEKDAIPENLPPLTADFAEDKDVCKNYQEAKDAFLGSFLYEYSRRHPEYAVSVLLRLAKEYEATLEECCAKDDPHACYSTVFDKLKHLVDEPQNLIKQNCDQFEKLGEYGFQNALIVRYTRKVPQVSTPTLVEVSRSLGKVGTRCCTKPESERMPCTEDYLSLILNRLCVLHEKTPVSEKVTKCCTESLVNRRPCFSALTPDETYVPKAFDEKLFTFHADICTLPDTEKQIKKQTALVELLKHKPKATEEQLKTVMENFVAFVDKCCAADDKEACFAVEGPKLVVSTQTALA
MEASUREMENT NOTES: SPR (Biacore), peptide-BSA immobilized, Fab analyte, steady-state fit
ASSAY METRIC: Kd (nM)
Express your answer in nM, writing the number without its unit.

// known answers, use as guide
BINDER	READOUT UNITS	Kd
CX2-Mab #2 (Fab format) (Fab, V domains shown) VH: QVQLVQSGAEVKKPGASVKVSCKASGYTFSRYAMHWVRQAPGQGLEWMGVINPYNGNTRYAQKFQGRVTMTRDTSISTAYMELSRLRSEDTAVYYCARGSHIQAGAFDYWGQGTLVTVSS VL: DIQMTQSPSSLSASVGDRVTITCRASQGINNRLNWYQQKPGKAPKLLIYDGSSLQSGVPSRFSGSGSGTDFTLTISSLQPEDFATYYCQQYIHFPVTFGQGTKVEIKR	nM	221
CX2-Mab #4 (Fab format) (Fab, V domains shown) VH: EVQLLESGGGLVQPGGSLRLSCAASGFTFSSNGMSWVRQAPGKGLEWVSAISSSGSKTYYADSVKGRFTISRDNSKNTLYLQMNSLRAEDTAVYYCARGYGFDVWGQGTLVTVSS VL: DIVLTQPPSVSGAPGQRVTISCSGSSSNIGVNIVNWYQQLPGTAPKLLIYSTSNRPSGVPDRFSGSKSGTSASLAITGLQAEDEADYYCATRDGISKSVVFGGGTKLTVLG	nM	143
CX2-Mab #3 (Fab format) (Fab, V domains shown) VH: EVQLLESGGGLVQPGGSLRLSCAASGFTFSSYWMSWVRQAPGKGLEWVSVISYSGSETFYADSVKGRFTISRDNSKNTLYLQMNSLRAEDTAVYYCARGRVGYAFDYWGQGTLVTVSS VL: DIVLTQPPSVSGAPGQRVTISCSGSSSNIGVNYVNWYQQLPGTAPKLLIYSNNQRPSGVPDRFSGSKSGTSASLAITGLQAEDEADYYCQSRASGFYSVVFGGGTKLTVLG	nM	393

Consider now this further binder.
Entry under review: CX2-Mab #1 (Fab format) (Fab, V domains shown) VH: QVQLVQSGAEVKKPGSSVKVSCKASGGTFSSYAISWVRQAPGQGLEWMGGIIPIVGEAKYAQKFQGRVTITADESTSTAYMELSSLRSEDTAVYYCARDSSGYDGYYAFAYWGQGTQVTVSS VL: DIVLTQPPSVSGAPGQRGTISCSGSSSNIGSSSVNWYQQLPGTAPKLLIYRNNQRPSGVPDRFSGSKSGTSASLAITGLQAEDEADYYCGATDFSANQVVFGGGTKLTVLG . Reported Kd? 534

Recorded values, source patent US20160060347A1.
